Entries and their log10 of IC50 values follow.
- System: CYP enzymes in rat liver microsomes (RLM)
- protocolDescription: Inhibition of 20-HETE production in rat liver microsomes (RLM)
- Assay type: biochemical
On a log10 scale: recorded IC50, unit nM.

[ask] Name the reported log10 of IC50 value associated with the molecule O=C(N1CC=C(c2ccc(-c3cn[nH]c3)c(F)c2F)CC1)N1CCCC1
[reply] 0.96

[ask] Name the reported log10 of IC50 value associated with the molecule C=CCCCCCC(=O)NCC1CCN(c2ccc(-c3cn[nH]c3)cc2)CC1
[reply] 1.42

----------
- Tested on: CYP enzymes in rat liver microsomes (RLM)
- protocolDescription: Inhibition of 20-HETE production in rat liver microsomes (RLM)
- Format: biochemical
- measurementSetup: 500 nM
Entries and their RLM (% inh @ 500 nM) values follow.
// return numeric value only (unit: %, not printed)

Guide cases for RLM (% inh @ 500 nM), answers given:
O=C1CCCN1CC1CCN(c2ccc(-c3cn[nH]c3)cc2F)CC1 [Compound 2]; 59.38
O=C1CCCCN1CC1CCN(c2ccc(-c3cn[nH]c3)cc2)CC1 [Compound 25]; 61.49

[ask] Lookup: RLM (% inh @ 500 nM) / CYP enzymes in rat liver microsomes (RLM) / O=C(NCc1ccccc1)C1CCN(c2ccc(-c3cn[nH]c3)c(F)c2F)CC1 [Compound 95]
[reply] 61.73

----------
- protocolDescription: Pharmacokinetic (PK) experiment, oral administration in rats
- Type: in vivo, Male SD rats
- measurementSetup: male, SD, rat, plasma, 20 mg/kg
Entries and their Cmax values follow.
// return numeric value only (unit: ng/mL, not printed)

Guide cases for Cmax, answers given:
O=C1CCCN1CC1CCN(c2ccc(-c3cn[nH]c3)cc2)CC1; 9980
O=C1CCCCN1CC1CCN(c2ccc(-c3cn[nH]c3)c(F)c2F)CC1; 7150
O=C1CCCN1CC1CCN(c2ccc(-c3cn[nH]c3)cc2F)CC1; 10100
O=C1CCCN1CC1CCN(c2c(F)cc(-c3cn[nH]c3)cc2F)CC1; 9270

[ask] Name the reported Cmax value associated with the compound O=C(C1CCCC1)N1CCC(c2ccc(-c3cn[nH]c3)c(F)c2F)CC1
[reply] 8700

----------
- System: CYP enzymes in rat liver microsomes (RLM)
- protocolDescription: Inhibition of 20-HETE production in rat liver microsomes (RLM)
- Assay type: biochemical
- measurementSetup: 500 nM
- Method: Experimental principle: The inhibitory activity of 20-HETE production is evaluated by testing the inhibitory effects of the compound on human liver microsomes (HLM), rat liver microsomes (RLM), mouse liver microsomes (MLM), or […] CYP4 subtype enzymes (CYP4F2). […]
Decision: RLM (% inh @ 500 nM) compared against 70%; not below it gives true, below it gives false.

Please review the following examples before continuing.
C[C@@H]1CN(c2ccc(-c3cn[nH]c3)c(F)c2F)CCN1C(=O)N1CCCC1 [Compound 103]; true
O=C(NC1CCCCC1)C1CCN(c2ccc(-c3cn[nH]c3)cc2)CC1 [Compound 57]; false
O=C(N1CCCC1)N1CCN(c2ccc(-c3cn[nH]c3)cc2F)CC1 [Compound 129]; true
O=C(NC1CCN(c2ccc(-c3cn[nH]c3)cc2)CC1)C1CCCC1 [Compound 69]; false
O=C(Cc1ccccc1)N1CCC(c2ccc(-c3cn[nH]c3)c(F)c2F)CC1 [Compound 111]; true

[ask] Does the reported RLM (% inh @ 500 nM) for O=C1N(CC2CCN(c3ccc(-c4cn[nH]c4)cc3)CC2)CCC12CCCCC2 [Compound 31] fall at or above the 70% mark?
[reply] false

[ask] Does the reported RLM (% inh @ 500 nM) for O=C1CCCN1CC1CCN(c2ccc(-c3cn[nH]c3)cc2)CC1 [Compound 1] fall at or above the 70% mark?
[reply] false

[ask] Does the reported RLM (% inh @ 500 nM) for O=C(N1CCCC1)N1CCC(c2ccc(-c3cn[nH]c3)c(F)c2F)CC1 [Compound 71] fall at or above the 70% mark?
[reply] true

[ask] Does the reported RLM (% inh @ 500 nM) for O=C1CCCN1CC1CCN(c2ccc(-c3cc[nH]n3)c(F)c2F)CC1 [Compound 77] fall at or above the 70% mark?
[reply] false

[ask] Does the reported RLM (% inh @ 500 nM) for O=C(NCC1CCCC1)N1CCN(c2ccc(-c3cn[nH]c3)c(F)c2F)CC1 [Compound 92] fall at or above the 70% mark?
[reply] true

[ask] Does the reported RLM (% inh @ 500 nM) for O=C1CCCN1CC1CCN(c2ccc(-c3cc[nH]n3)cc2F)CC1 [Compound 76] fall at or above the 70% mark?
[reply] false

[ask] Does the reported RLM (% inh @ 500 nM) for O=C(C1CCN(c2ccc(-c3cn[nH]c3)cc2)CC1)N1CCCCC1 [Compound 54] fall at or above the 70% mark?
[reply] false

[ask] Does the reported RLM (% inh @ 500 nM) for O=C(CCCCCO)NCC1CCN(c2ccc(-c3cn[nH]c3)cc2)CC1 [Compound 45] fall at or above the 70% mark?
[reply] false
